# Tested on: SF-268
# Procedure Details: NCI tumour cell line growth inhibition, 48 h
Calls of active or inactive are those of the source. Rule as the data show it: active = GI50 up to about 1.1 µM and inactive = higher.
Answer with one of the outcomes given here: True for active, False for inactive

Before answering, review these 2 worked examples.
N#Cc1c(SCc2ccccc2)nc(-c2ccccc2)[nH]c1=S ... False
NC1CC(=O)c2cc(Cl)sc21 (configuration not stated) ... False

IN: What did this assay record as the result for CCOP(=O)(OCC)C1CCCOC1=O (configuration not stated) ?
OUT: False

IN: Hi, sorry to bother you, what did the test record for CC1=C(C2=C(C)C(=O)C(=O)c3cc(C)ccc32)c2ccc(C)cc2C(=O)C1=O ?
OUT: True

IN: Assay result, entry CC(=C/c1ccccc1)/C=C1/NC(=S)N(/C=C2\C(=O)Oc3ccccc3C2=O)C1=O — outcome?
OUT: False

IN: # outcome recorded in this test, key = C[C@]12CC[C@H]3[C@@H](CC=C4C[C@@H](O)CC[C@@]43C)[C@@H]1C/C(=C/c1ccccc1)[C@@H]2O
OUT: False

IN: Test call for this compound, please: CNc1ncnc2c1nc(NC1CCCC1)n2C1OC(CO)C(O)C1O (configuration not stated)
OUT: False

----------
# Test system: A498
# Procedure Details: NCI tumour cell line growth inhibition, 48 h
Active and inactive are the calls of the source. Cut-off read from the data, not from the text of the source: active = GI50 up to about 1.1 µM and inactive = higher.
Give your call using only these classes: t = active, f = inactive

Before answering, review these 5 worked examples.
CCC(=O)C(C(=O)CC)c1c(OC(=O)c2ccccc2)ccc(O)c1C(=O)OC ... f
CC(=O)c1ccc(N2CCN(C3=CC(=O)c4c(O)ccc(O)c4C3=O)CC2)cc1 ... f
C=CCn1c(-c2ccc(-c3cs/c(=N\N=O)n3CC=C)cc2)cs/c1=N\N=O ... f
CCCCCCCCCCCCCCCCCC(=O)Nc1ccn(C2CCC(COP(=O)(O)O)O2)c(=O)n1 (stereo unspecified) ... f
CS(=O)(=O)C1(Br)S(=O)(=O)OCCOS1(=O)=O ... f

IN: What is the recorded call for this compound in the test? C=C(C)[C@@H](C(=O)OC)N1C(=O)c2ccccc2C1=O
OUT: f

IN: Record lookup: outcome of this test for O=C(CN1CCN(c2ccccc2)CC1)N1CCc2c([nH]c3ccccc23)C1c1cccnc1 (stereo unspecified) ?
OUT: f

IN: Could you please tell me the result logged for CC(O)c1cc2c(s1)C(=O)c1scc(C(C)O)c1C2=O (stereo unspecified) in this assay?
OUT: f

IN: Could you please tell me the result logged for Cn1c(=O)ccc2cc(C(=O)c3ccccc3)ccc21 in this assay?
OUT: f

----------
# Tested on: KM12
# Procedure Details: NCI tumour cell line growth inhibition, 48 h
Active and inactive are the calls of the source. Cut-off read from the data, not from the text of the source: active = GI50 up to about 1.1 µM and inactive = higher.
Observable: GI50

COc1cc(-c2nn3c(=O)n(-c4ccc(Cl)cc4)c(=O)nc3s2)cc(OC)c1OC ... > 65.8 µM (inactive)
CC(=O)O[C@@H]1CC[C@@]2(C)C(=O)C34C[C@@]5(C)C([C@@H](C)CCCC(C)C)CCC5(C)[C@](O)(O3)C(=O)[C@H]4C2C1(C)C (some centres undefined) ... 11.3 µM (inactive)
COc1cc2c(/C=C3/C(=O)Nc4ccc(Cl)cc43)c(Cl)n(Cc3ccccc3)c2cc1C ... 2.33 µM (inactive)
COc1ccc2c(c1)c1c(n2CCN(C)C)-c2cccc(OC)c2CC1 ... 11.2 µM (inactive)
Cc1ccc(S(=O)(=O)NC(=O)C2=C3SCCN3C(=O)N(S(=O)(=O)c3ccc(C)cc3)C2c2ccccc2)cc1 (centres undefined) ... 28.2 µM (inactive)
COc1cccc(NC(=O)c2c(SC)c(C#N)c(=O)n(N)c2N)c1 ... > 100 µM (inactive)
OCc1c2c(cc3c1CC1(C3)Cc3cc4c(c(CO)c3C1)CCC4)CCC2 ... 16.4 µM (inactive)
COc1cc(Cc2ccc3c(c2C#N)N(C)c2ccccc2S3)cc(OC)c1OC ... > 100 µM (inactive)

Test item C=CC(Br)(CBr)CCC(Br)C(C)(C)Br (centres undefined) ; KM12; reported GI50 was 9.14 µM (inactive)

Cited source for all entries: ChEMBL document CHEMBL1201862
